Target: HLA-A*32:01
Assay: IEDB peptide-MHC binding, purified MHC/competitive/radioactivity; filed as Kd, often an IC50 or EC50 that approximates it; bounds were set here for any values at or beyond the usual limits of such assays
Settings: source organism: Vaccinia virus WR
readout_label: pKd
Value format note: pKd is -log10 of concentration (mol/L); just state the number.

residues=KIGMFNLTF system_name=HLA-A*32:01 number=9.57
residues=QILASILSI system_name=HLA-A*32:01 number=7.66
residues=RHLIFSYAF system_name=HLA-A*32:01 number=7.87

Could you now consider this next sequence?
Name the recorded pKd for RIRRFRRPM .
6.11

====

Biological target: HLA-A*24:02
Assay: IEDB peptide-MHC binding, purified MHC/competitive/fluorescence; bounds were set here for any values at or beyond the usual limits of such assays
Conditions: source organism: Zaire ebolavirus
pIC50: −log10 of the molar value.
readout_label: pIC50

Provide value of pIC50 for this record tested with HLA-A*24:02: STHNTPVYK
≤ 3.87

// next record ESDMDYHKI
≤ 3.96

// next record YPTAWQSVG
≤ 3.68

// next record QTQSRPIQN
≤ 3.89

====

Listing: pKd of selected sequences
Target: HLA-A*68:01
Assay: IEDB peptide-MHC binding, purified MHC/competitive/radioactivity; filed as Kd, often an IC50 or EC50 that approximates it; bounds were set here for any values at or beyond the usual limits of such assays
Settings: source organism: Vaccinia virus WR
Value format note: pKd is -log10 of concentration (mol/L); just state the number.

Name the recorded pKd for AALDGTFQR .
8.71

// next record FLIVSLCPTK
6.01

// next record NARGEDTQMR
7.79

// next record ISSKQYPAGR
8.07

// next record EANASAQTK
7.56

// next record FMSHVKSVTK
7.50

// next record FVSLVKKNKK
7.94

// next record LIKFISDNK
8.96

// next record IVRTMPNESR
6.40

// next record KSIHLTKTDK
6.38

====

Target: HLA-A*26:01
Experiment: IEDB peptide-MHC binding, purified MHC/competitive/radioactivity; filed as Kd, often an IC50 or EC50 that approximates it; bounds were set here for any values at or beyond the usual limits of such assays
Settings: source organism: SARS coronavirus Tor2
pKd: −log10 of the molar value.
Listing: pKd of selected sequences

residues=MFSPIVPFW result="≤ 4.11"
residues=GYVTHGFNL result="≤ 4.11"
residues=LFADINGKL result="≤ 4.38"
residues=GYTMHANYI result="≤ 4.11"
residues=ADAGFMKQY result="≤ 4.09"
residues=VMPLSAPTL result="≤ 4.11"

Provide value of pKd for this record tested with HLA-A*26:01: EFLTRNPAW
≤ 4.16

// next record GTDLEGKFY
≤ 4.41

====

Target: HLA-A*02:03
Experiment: IEDB peptide-MHC binding, purified MHC/competitive/radioactivity; filed as Kd, often an IC50 or EC50 that approximates it; bounds were set here for any values at or beyond the usual limits of such assays
Details: source organism: Vaccinia virus WR
Listing: Kd of selected sequences
Kindly answer with a numeric value in nM, unit omitted.

residues=MLLNVQTLI system_name=HLA-A*02:03 readout_label=Kd number=0.25

Name the recorded Kd for MIHKTYIDV .
15.2

// next record ELTTVFIKYV
719

// next record ILFQNNDINA
407

====

Listing: pKd of selected sequences
Biological target: HLA-A*33:01
Test: IEDB peptide-MHC binding, purified MHC/competitive/radioactivity; filed as Kd, often an IC50 or EC50 that approximates it; bounds were set here for any values at or beyond the usual limits of such assays
Details: source organism: Vaccinia virus WR
pKd: −log10 of the molar value.

residues=FTDISMSLY readout_label=pKd result="≤ 4.11"
residues=KIKTNDINVR readout_label=pKd result="≤ 4.68"
residues=GLTPEQKAY readout_label=pKd result="≤ 4.11"
residues=PVLKAMHDKK readout_label=pKd result="≤ 4.15"
residues=QSYKETVHK readout_label=pKd result="≤ 4.11"

Provide value of pKd for this record tested with HLA-A*33:01: LSDENYLLK
≤ 4.18

// next record IMLEGETKLY
≤ 4.39

// next record GIADIRDKY
≤ 4.11

// next record NIAEYIAGLK
≤ 4.60

// next record ILMKTANNY
≤ 4.11

// next record AAIDRQVSVK
≤ 4.15

// next record SLTIKDSSNK
≤ 4.15

====

Molecular target: HLA-A*31:01
Assay: IEDB peptide-MHC binding, purified MHC/competitive/radioactivity; filed as Kd, often an IC50 or EC50 that approximates it; bounds were set here for any values at or beyond the usual limits of such assays
Conditions: source organism: Vaccinia virus WR
Listing: pKd of selected sequences
Value format note: pKd is -log10 of concentration (mol/L); just state the number.

Answered cases to consult:
residues=RLYDYFTRV number=6.39
residues=LIKFISDNK number=6.92

Could you now consider this next sequence?
Provide value of pKd for this record tested with HLA-A*31:01: LSYIYSEIK
5.07

====

Molecular target: HLA-A*68:01
Test: IEDB peptide-MHC binding, purified MHC/competitive/radioactivity; filed as Kd, often an IC50 or EC50 that approximates it; bounds were set here for any values at or beyond the usual limits of such assays
Settings: source organism: Vaccinia virus WR
Grouping rule (Kd): bottom bin (below 60 nM), middle bin (60 nM to below 700 nM), top bin (700 nM or more)

Solved entries:
residues=ASKKDKLTVY system_name=HLA-A*68:01 classification="top bin"
residues=PVLKAMHDKK system_name=HLA-A*68:01 classification="top bin"
residues=HTCMSECVR system_name=HLA-A*68:01 classification="bottom bin"
residues=GLTPEQKAY system_name=HLA-A*68:01 classification="top bin"
residues=SLENLDPDNK system_name=HLA-A*68:01 classification="top bin"
residues=QSYKETVHK system_name=HLA-A*68:01 classification="bottom bin"
residues=TQIFEVYWY system_name=HLA-A*68:01 classification="top bin"
residues=ASITPNNLNK system_name=HLA-A*68:01 classification="bottom bin"
residues=KIKTNDINVR system_name=HLA-A*68:01 classification="top bin"
residues=LSYIYSEIK system_name=HLA-A*68:01 classification="middle bin"

Alright, here's another sequence for you.
State the band of ILGGVLHTK
middle bin

====

Target: HLA-A*02:03
Test: IEDB peptide-MHC binding, purified MHC/competitive/radioactivity; filed as Kd, often an IC50 or EC50 that approximates it; bounds were set here for any values at or beyond the usual limits of such assays
Settings: source organism: Vaccinia virus WR
Listing: Kd of selected sequences

Name the recorded Kd for PTEMVDVSMM .
≥ 70400 nM

// next record NQLDSSNKSM
≥ 30000 nM

====

Biological target: HLA-A*33:01
Assay: IEDB peptide-MHC binding, purified MHC/competitive/radioactivity; filed as Kd, often an IC50 or EC50 that approximates it; bounds were set here for any values at or beyond the usual limits of such assays
Conditions: source organism: Vaccinia virus WR
pKd: −log10 of the molar value.
Listing: pKd of selected sequences

Name the recorded pKd for GIFVDTMSIY .
≤ 4.55

// next record MLEGETKLYK
≤ 4.15

// next record KTSKTTILSK
≤ 4.15

// next record LVYFSTQQNK
≤ 4.35

// next record SIENKHQRR
6.16

// next record ASITPNNLNK
≤ 4.53

// next record YSKLTKDRK
≤ 4.62

====

Molecular target: HLA-A*31:01
Experiment: IEDB peptide-MHC binding, purified MHC/competitive/radioactivity; filed as Kd, often an IC50 or EC50 that approximates it; bounds were set here for any values at or beyond the usual limits of such assays
Conditions: source organism: Vaccinia virus WR
readout_label: Kd

Answered cases to consult:
residues=GIADIRDKY readout_label=Kd result="≥ 77.9 µM"
residues=TIRHMWSVVY readout_label=Kd result="≥ 57 µM"
residues=EIMDKEQLLK readout_label=Kd result="≥ 50.9 µM"

Could you now consider this next sequence?
Name the recorded Kd for SLTIKDSSNK .
≥ 70 µM

====

Biological target: HLA-A*68:01
Assay: IEDB peptide-MHC binding, purified MHC/competitive/radioactivity; filed as Kd, often an IC50 or EC50 that approximates it; bounds were set here for any values at or beyond the usual limits of such assays
Conditions: source organism: Vaccinia virus WR
Flag rule - Kd less than 300 nM flags Criterion met; the remaining entries get Criterion not met.

residues=AAIDRQVSVK classification="Criterion not met"

Kd strictly < 300 nM for this sequence? ATIQRFSSLR
Criterion met

// next record DILGVLTIK
Criterion not met

// next record QTSVNTVVR
Criterion met

// next record FLLRHYYNK
Criterion not met

// next record ASMGFKVTTR
Criterion met

// next record LSDENYLLK
Criterion not met

// next record NIAEYIAGLK
Criterion met

// next record SLNSMYTRLR
Criterion met

// next record GIADIRDKY
Criterion not met
